# Target or test system: human Nav1.7 (hNav1.7) (Homo sapiens)
# Construct: expressed in transfected cells
# Sequence (Q15858 whole entry): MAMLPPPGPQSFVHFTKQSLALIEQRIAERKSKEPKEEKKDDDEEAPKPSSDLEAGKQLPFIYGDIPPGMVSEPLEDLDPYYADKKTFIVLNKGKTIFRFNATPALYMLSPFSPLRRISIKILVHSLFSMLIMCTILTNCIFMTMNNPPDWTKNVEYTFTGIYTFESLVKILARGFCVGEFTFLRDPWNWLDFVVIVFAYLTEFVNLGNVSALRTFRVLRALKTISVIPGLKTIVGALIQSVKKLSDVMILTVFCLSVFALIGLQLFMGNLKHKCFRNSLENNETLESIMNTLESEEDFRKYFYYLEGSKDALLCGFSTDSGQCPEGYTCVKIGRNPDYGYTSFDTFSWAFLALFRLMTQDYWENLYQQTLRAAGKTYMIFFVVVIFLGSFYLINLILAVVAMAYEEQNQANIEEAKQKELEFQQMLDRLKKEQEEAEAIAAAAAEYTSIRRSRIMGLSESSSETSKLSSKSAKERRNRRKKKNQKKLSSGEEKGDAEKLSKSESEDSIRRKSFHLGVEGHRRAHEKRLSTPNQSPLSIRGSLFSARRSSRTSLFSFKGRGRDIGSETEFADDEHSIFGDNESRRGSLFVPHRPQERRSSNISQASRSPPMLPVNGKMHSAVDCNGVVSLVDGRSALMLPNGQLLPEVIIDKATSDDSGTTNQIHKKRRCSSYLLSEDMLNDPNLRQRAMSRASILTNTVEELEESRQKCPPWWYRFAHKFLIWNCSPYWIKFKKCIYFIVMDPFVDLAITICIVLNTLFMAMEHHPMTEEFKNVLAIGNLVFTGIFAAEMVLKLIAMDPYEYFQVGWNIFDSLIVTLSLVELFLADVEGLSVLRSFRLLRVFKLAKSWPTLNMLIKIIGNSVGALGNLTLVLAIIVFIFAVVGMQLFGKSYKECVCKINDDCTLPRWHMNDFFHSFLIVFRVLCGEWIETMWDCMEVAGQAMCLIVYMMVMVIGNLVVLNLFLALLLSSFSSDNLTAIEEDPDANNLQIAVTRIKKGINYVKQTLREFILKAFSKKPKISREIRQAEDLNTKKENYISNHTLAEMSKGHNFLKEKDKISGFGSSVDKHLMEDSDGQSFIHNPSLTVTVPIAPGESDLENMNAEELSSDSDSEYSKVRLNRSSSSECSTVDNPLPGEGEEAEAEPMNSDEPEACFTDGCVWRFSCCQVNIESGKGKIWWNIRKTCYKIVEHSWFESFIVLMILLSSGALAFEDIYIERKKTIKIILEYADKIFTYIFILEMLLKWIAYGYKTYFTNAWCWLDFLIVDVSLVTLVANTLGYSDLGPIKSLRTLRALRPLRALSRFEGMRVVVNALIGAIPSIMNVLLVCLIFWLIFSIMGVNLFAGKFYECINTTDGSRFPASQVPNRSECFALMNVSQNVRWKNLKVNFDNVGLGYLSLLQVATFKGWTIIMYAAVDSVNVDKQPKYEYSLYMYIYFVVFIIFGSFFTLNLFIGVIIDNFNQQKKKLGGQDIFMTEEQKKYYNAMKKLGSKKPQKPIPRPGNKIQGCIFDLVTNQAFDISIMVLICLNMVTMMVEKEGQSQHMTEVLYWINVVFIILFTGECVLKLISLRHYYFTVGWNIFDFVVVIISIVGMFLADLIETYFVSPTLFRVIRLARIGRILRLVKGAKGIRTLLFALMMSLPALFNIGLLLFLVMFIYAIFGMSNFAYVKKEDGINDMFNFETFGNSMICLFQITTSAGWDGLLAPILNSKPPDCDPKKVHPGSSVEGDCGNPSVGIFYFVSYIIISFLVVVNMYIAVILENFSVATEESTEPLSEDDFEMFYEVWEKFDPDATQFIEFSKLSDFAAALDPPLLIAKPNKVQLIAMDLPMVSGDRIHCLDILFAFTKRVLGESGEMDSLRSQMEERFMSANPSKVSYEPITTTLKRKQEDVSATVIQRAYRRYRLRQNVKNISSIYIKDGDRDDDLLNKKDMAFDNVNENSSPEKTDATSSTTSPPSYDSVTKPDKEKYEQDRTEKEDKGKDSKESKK
# Assay protocol: hNav1.7 whole-cell patch-clamp electrophysiology (automated PatchXpress 7000A or manual) in stably expressing 293 cells
# Assay type: cell-based
# Assay conditions: average IC50, human Nav1.7
# Description: Compounds were tested on human Nav1.7 (hNav1.7) expressed stably in 293 cells, which have no endogenous sodium channels. Two forms of whole-cell patch-clamp assays were used. In both, peak current through Nav1.7 was evoked by a depolarizing voltage pulse, and currents were monitored as a function of time in response to exposure to several different concentrations of drug. Automated electrophysiology uses the PatchXpress 7000A system. […] IC50 were determined by fitting to the Hill equation.
Property: IC50 (µM)

[a] CNC(=O)c1cccc(Nc2ncnc(N3CCC(Oc4ccc(OCC(F)(F)F)cc4)CC3)n2)c1 [Example 101]
[b] CNC(=O)c1cccc(Nc2ncnc(N3CC(Oc4cc(Cl)cc(Cl)c4)C3)n2)c1 [Example 224]
[in] Thinking about recorded IC50 values, which is higher, a or b ? Returns: label corresponding to the selected item.
[out] b
